Collected set of Ki measured with UniProt:P31390 across studies.
reported endpoint: Ki (nM)

| molecule | Ki (nM) |
| --- | --- |
| CN1CCN(C2=Cn3cccc3Sc3ccccc32)CC1 | 2.7 |

[1] CCCC(=O)N1CCC(=C2c3ccc(Cl)cc3CCc3cccnc32)CC1
[2] Cn1c(=O)sc2cc(CCCCN3CCC(Cc4ccccc4)CC3)ccc21
[3] CC(=O)N1CCC(=C2c3ccc(Cl)cc3CCc3ccc(Cl)nc32)CC1
stdin: List items by Ki in falling order. As an answer, provide the labels arranged in the order called for.
stdout: 3, 1, 2
(3: 1360 nM, 1: 51 nM, 2: 9 nM)

[A] CN1CCN(C2c3ccc(Cl)cc3CCc3cccnc32)CC1 (configuration not stated)
[B] Cn1c(=O)sc2cc(CCCCN3CCC(c4ccccc4)CC3)ccc21
stdin: In terms of reported Ki, does A or B have the smaller number? Use the label to indicate which entry you chose.
stdout: A

[1] CC(=O)N1CCN(C2c3ccccc3CCc3ccccc32)CC1
[2] COc1cnc2c(c1)CCc1cc(Cl)ccc1C2=C1CCN(C(C)=O)CC1
stdin: In terms of reported Ki, does 1 or 2 have the smaller number? Use the label to indicate which entry you chose.
stdout: 2

[P] CCCC(=O)N1CCN(C2c3ccc(Cl)cc3CCc3cccnc32)CC1 (configuration not stated)
[Q] CC(=O)N1CCC(=C2c3ccc(Cl)cc3CCc3cc(Cl)cnc32)CC1
stdin: Between P and Q , which one shows the larger Ki value? Use the label to indicate which entry you chose.
stdout: P

====

Collected set of Ki measured with UniProtKB P31390 across studies.
reported endpoint: Ki (nM)

| compound | reported endpoint | number |
| --- | --- | --- |
| Cn1c(=O)sc2cc(CCCCN3CCN(Cc4ccc(Cl)c(Cl)c4)CC3)ccc21 | Ki | 9 |
| O=C(O)C1(F)CCN(C2CC[C@]3(Cc4ccccc4Cc4ccccc43)C2)CC1 (stereo partly specified) | Ki | 12.3 |
| CN1CCN([C@@H]2Cn3cccc3Sc3ccccc32)CC1 (stereo in doubt; (+)-6a) | Ki | 9.5 |
| O=C(NCCCCc1cnc[nH]1)NCCC(c1ccc(Cl)cc1)c1ccccn1 (stereo unspecified) | Ki | 920 |
| CC(=O)N1CCC(=C2c3cc(F)ccc3CCc3cccnc32)CC1 | Ki | 2900 |
| Nc1nc(N2CCNCC2)c2ccc(-c3ccco3)cc2n1 | Ki | 3600 |
| CC(=O)N1CCC(=C2c3ccc(Cl)cc3CCc3cc(-c4ccccc4)cnc32)CC1 | Ki | 230 |
| CC12C(=O)C(C)(C(c3ccccc3)=C1c1ccccc1)C1C(=O)N(CCCCN3CCN(c4ncccn4)CC3)C(=O)C12 (stereo unspecified) | Ki | 6 |

[a] C[C@@H]1CN(CCc2ccc3c(c2)sc(=O)n3C)C[C@H](C)N1
[b] CC(=O)N1CCC(=C2c3ccc(Cl)cc3CCc3c(Cl)ccnc32)CC1
stdin: Between a and b , which one shows the larger Ki value? Use the label to indicate which entry you chose.
stdout: a
(a: 20000 nM, b: 240 nM)

[P] CN1CCC(=C2c3ccccc3CCc3cccnc32)CC1
[Q] CC12C(=O)C(C)(C(c3ccccc3)=C1c1ccccc1)C1C(=O)N(CCCCN3CCN(c4ccccc4F)CC3)C(=O)C12 (stereo unspecified)
[R] CC(=O)N1CCC(=C2c3ccc(F)cc3CCc3cccnc32)CC1
[S] Clc1ccc(C(CCNCCCCCc2cnc[nH]2)c2ccccn2)cc1 (stereo unspecified)
stdin: List items by Ki in falling order. As an answer, provide the labels arranged in the order called for.
stdout: R, S, Q, P

[A] CN1CCN(C2c3ccc(Cl)cc3CCc3cccnc32)CC1=O (stereo unspecified)
[B] Cn1c(=O)sc2cc(CCN3CCN(Cc4ccccc4)CC3)ccc21
stdin: In terms of reported Ki, does A or B have the smaller number? Use the label to indicate which entry you chose.
stdout: B
(B: 7 nM, A: 49 nM)

====

Collected set of Ki measured with UniProtKB P31390 across studies.
reported endpoint: Ki (nM)

Example molecules with recorded Ki:
| molecule | target under test | Ki / nM |
| --- | --- | --- |
| CC(=O)N1CCC(=C2c3ccc(Cl)cc3CCc3ccc(C)nc32)CC1 | UniProtKB P31390 | 1030 |
| CC(C)(C)C(=O)N1CCC(=C2c3ccc(Cl)cc3CCc3cccnc32)CC1 | UniProtKB P31390 | 81 |

[1] CC(=O)N1CCN([C@@H]2c3ccc(Cl)cc3CCc3cccnc32)CC1
[2] Cn1c(=O)sc2cc(CCN3CCC(c4ccccc4)CC3)ccc21
[3] CC(=O)N1CCC(=C2c3ccc(Cl)cc3CCc3cc(O)cnc32)CC1
[4] CC12C(=O)C(C)(C(c3ccccc3)=C1c1ccccc1)C1C(=O)N(CCCCN3CCN(c4ccccc4Cl)CC3)C(=O)C12 (configuration not stated)
stdin: List items by Ki in falling order. As an answer, provide the labels arranged in the order called for.
stdout: 1, 3, 4, 2
(1: 3600 nM, 3: 1580 nM, 4: 30 nM, 2: 20 nM)

[1] CC(=O)N1CCN(C2c3ccc(Cl)cc3CCc3cccnc32)CC1 (configuration not stated)
[2] O=C(O)C1=CCN(C2CCC3(Cc4ccccc4Oc4ccccc43)C2)CC1 (configuration not stated)
stdin: In terms of reported Ki, does 1 or 2 have the smaller number? Use the label to indicate which entry you chose.
stdout: 2
(2: 20 nM, 1: 5400 nM)

[A] CC(=O)N1CCCN(C2c3ccc(Cl)cc3CCc3cccnc32)CC1 (configuration not stated)
[B] O=C1CCC2CN(C3c4ccc(Cl)cc4CCc4cccnc43)CCN12 (configuration not stated)
[C] CCN1CCN(C2Cn3cccc3Sc3ccc(F)cc32)CC1 (racemic)
[D] O=CN1CCC(=C2c3ccc(Cl)cc3CCc3cccnc32)CC1
stdin: List items by Ki in falling order. As an answer, provide the labels arranged in the order called for.
stdout: B, A, D, C
(B: 3600 nM, A: 970 nM, D: 21 nM, C: 4.3 nM)

[I] CC(=O)N1CCC(=C2c3cc(Cl)c(Cl)cc3CCc3cccnc32)CC1
[II] CC(=O)N(C)CC/C=C1/c2ccc(Cl)cc2CCc2cccnc21
stdin: Between I and II , which one shows the larger Ki value? Use the label to indicate which entry you chose.
stdout: I
(I: 3100 nM, II: 850 nM)

[A] CC(=O)N1CCC(=C2c3ccccc3CCc3ccccc32)CC1
[B] CC(=O)N1CCC(=C2c3ccc(Cl)cc3CCc3cc(C(C)O)cnc32)CC1 (configuration not stated)
stdin: In terms of reported Ki, does A or B have the smaller number? Use the label to indicate which entry you chose.
stdout: B
(B: 40 nM, A: 5000 nM)

[a] O=C1CN(C2c3ccc(Cl)cc3CCc3cccnc32)CCN1 (configuration not stated)
[b] CC(=O)N1CCC(=C2c3ccccc3CCc3cccnc32)CC1
[c] CC(=O)N1CCC(=C2c3ccc(Cl)cc3CCc3cccnc32)CC1
stdin: Sort (3 molecules) by Ki: min first. As an answer, provide the labels arranged in the order called for.
stdout: a, c, b
(a: 140 nM, c: 320 nM, b: 2000 nM)

====

Collected set of Ki measured with Histamine H1 receptor (Rattus norvegicus, UniProt P31390) across studies.
Sequence (P31390 whole entry): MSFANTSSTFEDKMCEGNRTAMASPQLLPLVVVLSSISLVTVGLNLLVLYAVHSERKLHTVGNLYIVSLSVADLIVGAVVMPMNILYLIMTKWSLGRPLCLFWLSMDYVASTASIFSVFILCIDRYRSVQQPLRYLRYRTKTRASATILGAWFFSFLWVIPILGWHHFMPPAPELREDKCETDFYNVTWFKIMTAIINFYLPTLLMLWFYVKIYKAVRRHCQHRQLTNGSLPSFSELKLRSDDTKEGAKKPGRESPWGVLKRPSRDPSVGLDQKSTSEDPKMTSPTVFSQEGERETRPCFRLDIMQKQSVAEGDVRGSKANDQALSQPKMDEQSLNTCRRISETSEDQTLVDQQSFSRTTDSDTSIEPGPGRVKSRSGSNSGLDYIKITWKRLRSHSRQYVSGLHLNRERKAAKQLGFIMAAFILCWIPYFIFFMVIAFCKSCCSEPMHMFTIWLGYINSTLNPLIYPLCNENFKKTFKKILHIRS

Example molecules with recorded Ki:
| molecule | result |
| --- | --- |
| COc1ccnc2c1CCc1cc(Cl)ccc1C2=C1CCN(C(C)=O)CC1 | > 10 µM |
| CC(=O)N1CCC(=C2c3ccc(O)cc3CCc3cccnc32)CC1 | > 6.3 µM |
| CC(=O)N1CCN([C@H]2c3ccc(Cl)cc3CCc3cccnc32)CC1 | > 10 µM |

stdin: Request - read-out Ki | tested on Histamine H1 receptor (Rattus norvegicus, UniProt P31390) | molecule O=C(O)C1CCN(C2CC[C@]3(Cc4ccccc4Cc4ccccc43)C2)CC1 (stereo not given in full)
stdout: 0.00468 µM

stdin: Request - read-out Ki | tested on Histamine H1 receptor (Rattus norvegicus, UniProt P31390) | molecule CC(=O)N1[C@H](C)CN(C2c3ccc(Cl)cc3CCc3cccnc32)C[C@@H]1C (stereo not given in full)
stdout: ≥ 7.1 µM

====

pKi: −log10 of the molar value.
Collected set of pKi measured with Histamine H1 receptor (Rattus norvegicus, UniProt P31390) across studies.

| compound | target under test | pKi |
| --- | --- | --- |
| Cc1nccn1CC1CCc2c(c3ccccc3n2C)C1=O (stereo not drawn) | Histamine H1 receptor (Rattus norvegicus, UniProt P31390) | < 5.00 |
| Cn1c(=O)sc2cc(CCCCN3CCN(Cc4ccc(Cl)cc4Cl)CC3)ccc21 | Histamine H1 receptor (Rattus norvegicus, UniProt P31390) | > 7.00 |

stdin: Request - read-out pKi | tested on Histamine H1 receptor (Rattus norvegicus, UniProt P31390) | compound CC(=O)N1CCC(=C(c2ccc(Cl)cc2)c2ccccn2)CC1
stdout: < 5.20
